Experiment: caspase-8 TRAIL sensitization, hit retest, confirmation, cell-based, NB7+caspase-8, with/without TRAIL, luminescence panel (AID 651596)
Conditions: NB7 neuroblastoma + caspase-8, without TRAIL, luminescence viability, without TRAIL, mean of runs, at 10 µM
Rule: activity below 70% gives Y. Equal to or above 70% gives N.

{"compound": "N#Cc1c(NC(=O)c2ccccc2)sc2c1CCCCC2", "label": "Y"}
{"compound": "COc1ccc(C=NNC(=O)NN=Cc2ccc(OC)c(OC)c2)cc1OC", "label": "Y"}

Please indicate whether the reported activity of Cc1ccc(/C=C/C2=NN(C)C(=O)CC2)cc1 is strictly below 70%.
Y

Same lookup for CNC[C@@H](Cc1ccccc1)NC[C@@H](CC1CCCCC1)NCCCc1ccccc1 , please.
N

Same lookup for C(/C=C/c1ccccn1)=C\c1ccccc1 , please.
Y

Same lookup for O=c1oc(/C=C/c2ccccc2)nc2ccccc12 , please.
N

Same lookup for CC1(C)N=C(N)N=C(N)N1c1ccc(OCC(=O)N2CCOCC2)cc1 , please.
N

Same lookup for NC(=O)c1ccsc1NC(=O)c1ccc(N2CCCC2=O)cc1 , please.
N

The measured values listed here are drawn from PubChem BioAssay.
